# combination Emax per entry
Test system: NCI-H2066 (Squamous Cell Lung Carcinoma)
Experiment description: combination Emax (second highest fraction inhibited in the dose matrix, 72 h); higher = more inhibition; extreme values may be limits of the assay
Give your answer as a number; write no unit.

Known combination Emax results, listed for orientation:
# Compound, combination Emax
data = [
    ("C[C@@H]1COCCN1c1cc(C2([S@](C)(=N)=O)CC2)nc(-c2ccnc3[nH]ccc23)n1 [AZD6738] + Nc1ccn([C@@H]2O[C@H](CO)[C@@H](O)C2(F)F)c(=O)n1 [Gemcitabine] (first compound max 10 µM, 7x7, partner max 0.3 µM)", 0.368),
    ("Cc1cc2ncnn2cc1Nc1ncc2c(n1)n(C1CCOCC1)c(=O)n2C [AZD7648] + O=C(c1cc(Cc2n[nH]c(=O)c3ccccc23)ccc1F)N1CCN(C(=O)C2CC2)CC1 [Olaparib] (first compound max 10 µM, 7x7, partner max 10 µM)", 0.295),
    ("NC1(C(=O)N[C@@H](CCO)c2ccc(Cl)cc2)CCN(c2ncnc3[nH]ccc23)CC1 [Capivasertib] + CC(C)n1c(=O)n(C)c2cnc3cc(F)c(-c4ccc(OCCCN5CCCCC5)nc4)cc3c21 [AZD1390] (first compound max 10 µM, 7x7, partner max 0.3 µM)", 0.553),
    ("Cc1c2c(nn1C)CSCc1cc(n(C)n1)CSc1cc(c3ccccc3c1)OCCCc1c(C(=O)O)n(C)c3c-2c(Cl)ccc13 [AZD5991] + CCN(CCO)CCCOc1ccc2c(Nc3cc(CC(=O)Nc4cccc(F)c4)[nH]n3)ncnc2c1 [AZD2811] (first compound max 1 µM, 7x7, partner max 1 µM)", 0.304),
    ("C[C@@H](Oc1cc(-c2cnn(C3CCNCC3)c2)cnc1N)c1c(Cl)ccc(F)c1Cl [Crizotinib] + Cn1cnc2c(F)c(Nc3ccc(Br)cc3Cl)c(C(=O)NOCCO)cc21 [Selumetinib] (first compound max 10 µM, 7x7, partner max 10 µM)", 0.513),
]

Q: // combination Emax lookup, key: Cc1c2c(nn1C)CSCc1cc(n(C)n1)CSc1cc(c3ccccc3c1)OCCCc1c(C(=O)O)n(C)c3c-2c(Cl)ccc13 [AZD5991] + C1CN(CCC1(C(=O)N[C@@H](CCO)C2=CC=C(C=C2)Cl)N)C3=NC=NC4=C3C=CN4 [Capivasertib] (first compound max 1 µM, 7x7, partner max 3 µM)
A: 0.424

Q: Please look up its combination Emax: CC1(C)CCC(CN2CCN(c3ccc(C(=O)NS(=O)(=O)c4ccc(NCC5CCOCC5)c([N+](=O)[O-])c4)c(Oc4cnc5[nH]ccc5c4)c3)CC2)=C(c2ccc(Cl)cc2)C1 [Venetoclax] + COc1cc(Nc2ncc3c(n2)-c2ccc(Cl)cc2C(c2c(F)cccc2OC)=NC3)ccc1C(=O)O [Alisertib] (first compound max 1 µM, 7x7, partner max 10 µM)
A: 0.285

Q: Give its combination Emax value. Item: Cc1c2c(nn1C)CSCc1cc(n(C)n1)CSc1cc(c3ccccc3c1)OCCCc1c(C(=O)O)n(C)c3c-2c(Cl)ccc13 [AZD5991] + CS(=O)(=O)CCNCc1ccc(-c2ccc3ncnc(Nc4ccc(OCc5cccc(F)c5)c(Cl)c4)c3c2)o1 [Lapatinib] (first compound max 1 µM, 7x7, partner max 10 µM)
A: 0.426

Q: For the compound shown here, Cn1cnc2c(F)c(Nc3ccc(Br)cc3Cl)c(C(=O)NOCCO)cc21 [Selumetinib] + C[C@@H]1COCCN1C2=NC(=NC(=C2)C3(CC3)[S@](=N)(=O)C)C4=C5C=CNC5=NC=C4 [AZD6738] (first compound max 10 µM, 7x7, partner max 10 µM) , give the reported combination Emax.
A: 0.43

Q: Sample C[C@@H](Oc1cc(-c2cnn(C3CCNCC3)c2)cnc1N)c1c(Cl)ccc(F)c1Cl [Crizotinib] + CC1=C(C(=CC=C1)Cl)NC(=O)C2=CN=C(S2)NC3=CC(=NC(=N3)C)N4CCN(CC4)CCO [Dasatinib] (first compound max 10 µM, 7x7, partner max 2 µM) — what was its combination Emax?
A: 0.587

Q: Fill blank: measured combination Emax of the compound CC1(C)CCC(CN2CCN(c3ccc(C(=O)NS(=O)(=O)c4ccc(NCC5CCOCC5)c([N+](=O)[O-])c4)c(Oc4cnc5[nH]ccc5c4)c3)CC2)=C(c2ccc(Cl)cc2)C1 [Venetoclax] + C[C@@H](Nc1cc(F)cc(F)c1)c1cc(C(=O)N(C)C)cc2c(=O)cc(N3CCOCC3)oc12 [AZD8186] (first compound max 1 µM, 7x7, partner max 3 µM) is ____.
A: 0.215

Q: Dear colleague, I am looking for the recorded combination Emax of the following compound: CCN(CCO)CCCOc1ccc2c(Nc3cc(CC(=O)Nc4cccc(F)c4)[nH]n3)ncnc2c1 [AZD2811] + O=C(c1cc(Cc2n[nH]c(=O)c3ccccc23)ccc1F)N1CCN(C(=O)C2CC2)CC1 [Olaparib] (first compound max 1 µM, 7x7, partner max 10 µM)
A: 0.214

Q: Which measured combination Emax value corresponds to CC(=O)c1c(C)c2cnc(Nc3ccc(N4CCNCC4)cn3)nc2n(C2CCCC2)c1=O [Palbociclib] + Cc1c2c(nn1C)CSCc1cc(n(C)n1)CSc1cc(c3ccccc3c1)OCCCc1c(C(=O)O)n(C)c3c-2c(Cl)ccc13 [AZD5991] (first compound max 10 µM, 7x7, partner max 1 µM) ?
A: 0.198

---

System: NCI-H1581 (Non-Small Cell Lung Carcinoma)
Experiment description: Bliss excess, mean over the matrix (fraction); higher = more synergy
Measured parameter: Bliss excess
Would you mind answering with just the numeric figure?

# Molecule, Target, Numeric result
records = [
    ("CCc1c2c(nc3ccc(O)cc13)-c1cc3c(c(=O)n1C2)COC(=O)[C@]3(O)CC [SN-38] + CN(C)CCCOc1ccc(-c2ccc3ncc4c(c3c2)n(C2CCOCC2)c(=O)n4C)cn1 [AZD0156] (first compound max 0.3 µM, 7x7, partner max 1 µM)", "NCI-H1581 (Non-Small Cell Lung Carcinoma)", 0.016),
    ("CC(=O)c1c(C)c2cnc(Nc3ccc(N4CCNCC4)cn3)nc2n(C2CCCC2)c1=O [Palbociclib] + Cn1cnc2c(F)c(Nc3ccc(Br)cc3Cl)c(C(=O)NOCCO)cc21 [Selumetinib] (first compound max 10 µM, 7x7, partner max 10 µM)", "NCI-H1581 (Non-Small Cell Lung Carcinoma)", 0.0466),
]

Kindly consider the entry below.
Q: State the recorded Bliss excess for this entry: CN(CCO)CC[C@H](CSc1ccccc1)Nc1ccc(S(=O)(=O)NC(=O)c2ccc(N3CCC([C@@H](O)c4ccccc4-c4ccc(Cl)cc4)CC3)cc2)cc1S(=O)(=O)C(F)(F)F [AZD4320] + CN(C)CCCOc1ccc(-c2ccc3ncc4c(c3c2)n(C2CCOCC2)c(=O)n4C)cn1 [AZD0156] (first compound max 1 µM, 7x7, partner max 1 µM)
A: 0.0018

---

Test system: NCI-H1650 (Lung Adenocarcinoma)
Experiment description: Bliss excess, mean over the matrix (fraction); higher = more synergy
Returns one of MET or NOT MET; MET when Bliss excess is >= -0.03.

Examples from the recorded data:
# Molecule, Target, Class name
records = [
    ("COc1nnc2ccc(N3CCC(c4ccc(OCCN5CCN(C)C(=O)[C@H]5C)cc4)CC3)nn12 [AZD5153] + C[C@@H]1COCCN1C2=NC(=NC(=C2)C3(CC3)[S@](=N)(=O)C)C4=C5C=CNC5=NC=C4 [AZD6738] (first compound max 1 µM, 7x7, partner max 10 µM)", "NCI-H1650 (Lung Adenocarcinoma)", "MET"),
    ("Cn1cnc2c(F)c(Nc3ccc(Br)cc3Cl)c(C(=O)NOCCO)cc21 [Selumetinib] + C[C@@H]1COCCN1C2=NC(=NC(=C2)C3(CC3)[S@](=N)(=O)C)C4=C5C=CNC5=NC=C4 [AZD6738] (first compound max 10 µM, 7x7, partner max 10 µM)", "NCI-H1650 (Lung Adenocarcinoma)", "NOT MET"),
    ("CCc1c2c(nc3ccc(O)cc13)-c1cc3c(c(=O)n1C2)COC(=O)[C@]3(O)CC [SN-38] + CN(C)CCCOc1ccc(-c2ccc3ncc4c(c3c2)n(C2CCOCC2)c(=O)n4C)cn1 [AZD0156] (first compound max 0.3 µM, 7x7, partner max 1 µM)", "NCI-H1650 (Lung Adenocarcinoma)", "MET"),
    ("COc1nnc2ccc(N3CCC(c4ccc(OCCN5CCN(C)C(=O)[C@H]5C)cc4)CC3)nn12 [AZD5153] + CC1(C)CCC(CN2CCN(c3ccc(C(=O)NS(=O)(=O)c4ccc(NCC5CCOCC5)c([N+](=O)[O-])c4)c(Oc4cnc5[nH]ccc5c4)c3)CC2)=C(c2ccc(Cl)cc2)C1 [Venetoclax] (first compound max 1 µM, 7x7, partner max 1 µM)", "NCI-H1650 (Lung Adenocarcinoma)", "NOT MET"),
    ("C=CCn1c(=O)c2cnc(Nc3ccc(N4CCN(C)CC4)cc3)nc2n1-c1cccc(C(C)(C)O)n1 [AZD1775] + C1CN(CCC1(C(=O)N[C@@H](CCO)C2=CC=C(C=C2)Cl)N)C3=NC=NC4=C3C=CN4 [Capivasertib] (first compound max 3 µM, partner max 3 µM)", "NCI-H1650 (Lung Adenocarcinoma)", "NOT MET"),
    ("CC(=O)c1c(C)c2cnc(Nc3ccc(N4CCNCC4)cn3)nc2n(C2CCCC2)c1=O [Palbociclib] + CN(CC[C@H](CSC1=CC=CC=C1)NC2=C(C=C(C=C2)S(=O)(=O)NC(=O)C3=CC=C(C=C3)N4CCC(CC4)[C@H](C5=CC=CC=C5C6=CC=C(C=C6)Cl)O)S(=O)(=O)C(F)(F)F)CCO [AZD4320] (first compound max 10 µM, 7x7, partner max 1 µM)", "NCI-H1650 (Lung Adenocarcinoma)", "NOT MET"),
    ("COc1cc2ncnc(Nc3ccc(F)c(Cl)c3)c2cc1OCCCN1CCOCC1 [Gefitinib] + CC(C)n1c(=O)n(C)c2cnc3cc(F)c(-c4ccc(OCCCN5CCCCC5)nc4)cc3c21 [AZD1390] (first compound max 10 µM, 7x7, partner max 0.3 µM)", "NCI-H1650 (Lung Adenocarcinoma)", "NOT MET"),
    ("COc1nnc2ccc(N3CCC(c4ccc(OCCN5CCN(C)C(=O)[C@H]5C)cc4)CC3)nn12 [AZD5153] + Cc1c2c(nn1C)CSCc1cc(n(C)n1)CSc1cc(c3ccccc3c1)OCCCc1c(C(=O)O)n(C)c3c-2c(Cl)ccc13 [AZD5991] (first compound max 1 µM, 7x7, partner max 1 µM)", "NCI-H1650 (Lung Adenocarcinoma)", "MET"),
]

Q: Is reported Bliss excess greater than or equal to -0.03 here: CCc1c2c(nc3ccc(O)cc13)-c1cc3c(c(=O)n1C2)COC(=O)[C@]3(O)CC [SN-38] + O=C(c1cc(Cc2n[nH]c(=O)c3ccccc23)ccc1F)N1CCN(C(=O)C2CC2)CC1 [Olaparib] (first compound max 0.3 µM, 7x7, partner max 10 µM)
A: MET

Q: Identify whether the reported Bliss excess of the following molecule is -0.03 or greater: CN(CCO)CC[C@H](CSc1ccccc1)Nc1ccc(S(=O)(=O)NC(=O)c2ccc(N3CCC([C@@H](O)c4ccccc4-c4ccc(Cl)cc4)CC3)cc2)cc1S(=O)(=O)C(F)(F)F [AZD4320] + Cn1cnc2c(F)c(Nc3ccc(Br)cc3Cl)c(C(=O)NOCCO)cc21 [Selumetinib] (first compound max 1 µM, 7x7, partner max 3 µM)
A: MET

Q: Determine whether this molecule has Bliss excess no lower than -0.03: COc1cccc(OCCCN)c1-c1cc(Nc2cnc(C#N)cn2)n[nH]1 [Prexasertib] + Cc1cc2ncnn2cc1Nc1ncc2c(n1)n(C1CCOCC1)c(=O)n2C [AZD7648] (first compound max 1 µM, 7x7, partner max 10 µM)
A: MET

Q: State whether the measured Bliss excess reaches -0.03, counting equality as reaching it, for C[C@@H]1COCCN1c1cc(C2([S@](C)(=N)=O)CC2)nc(-c2ccnc3[nH]ccc23)n1 [AZD6738] + O=C(c1cc(Cc2n[nH]c(=O)c3ccccc23)ccc1F)N1CCN(C(=O)C2CC2)CC1 [Olaparib] (first compound max 10 µM, 7x7, partner max 10 µM)
A: MET
